Please respond with reported pIC50 for every item in the list.
Molecular target: recombinant human FGFR2 cytoplasmic domain (amino acids 403-822) (Homo sapiens (Human), UniProt P21802)
Sequence (P21802 402-821): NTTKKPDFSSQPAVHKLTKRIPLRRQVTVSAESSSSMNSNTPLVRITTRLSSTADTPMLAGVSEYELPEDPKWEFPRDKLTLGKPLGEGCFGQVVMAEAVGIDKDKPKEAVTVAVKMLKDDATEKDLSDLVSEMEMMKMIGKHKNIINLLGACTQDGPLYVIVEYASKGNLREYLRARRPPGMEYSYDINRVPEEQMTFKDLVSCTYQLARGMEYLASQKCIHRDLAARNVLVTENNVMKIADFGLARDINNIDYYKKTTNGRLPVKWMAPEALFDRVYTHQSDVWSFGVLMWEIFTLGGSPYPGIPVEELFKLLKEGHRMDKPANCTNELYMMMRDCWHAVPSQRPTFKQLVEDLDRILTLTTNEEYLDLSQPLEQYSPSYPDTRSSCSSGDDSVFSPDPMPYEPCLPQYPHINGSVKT
Test: FGFR2 enzyme activity assay (LanthaScreen TR-FRET)
Format: biochemical
Settings: 15 μM ATP, 20 min incubation at 22° C., average of multiple determinations if made, read-out: FGFR2 Enz FRET IC50
Give bare numbers, as −log10 of the molar value.

C=CC(=O)Nc1ccc(C(=O)N2CC[C@H](n3cc(-c4cc(OC)c5c(C#N)cnn5c4)cn3)C2)cc1C : 8.40
C=CC(=O)N1CC(CC)(C(=O)N2CCC(n3cc(-c4cc(OC)c5c(C#N)cnn5c4)cn3)CC2)C1 : 8.52
C=CC(=O)N1CC(CN2CCC(n3ncc(-c4cc(OC)c5c(Cl)cnn5c4)c3C)CC2)(OC)C1 : 6.66
C=CC(=O)N1CC(C(=O)N2CCC(c3ccc(-c4cc(OC)c5c(C#N)cnn5c4)cc3)CC2)C1 : 8.52
C=CC(=O)N1CCC(C#N)(C(=O)N2CCC(n3cc(-c4cc(OC)c5c(C#N)cnn5c4)cn3)CC2)C1 (stereo not shown) : 8.70
COc1cc(-c2cnn(C3CN(CC4CN(C(=O)/C=C/CN5CCCCC5)C4)C3)c2)cn2ncc(C#N)c12 : 8.22

Q: Look up pIC50 for this compound: C=CC(=O)Nc1cccc(C(=O)N2CC[C@H](n3cc(-c4cc(OC)c5c(C#N)cnn5c4)cn3)C2)c1
A: 8.52

---

Please respond with reported IC50 for every item in the list.
Target: HEK-293 cells transfected with dox-inducible human wild type FGFR1 (Homo sapiens (Human), UniProt P11362)
Sequence (P11362 22-822): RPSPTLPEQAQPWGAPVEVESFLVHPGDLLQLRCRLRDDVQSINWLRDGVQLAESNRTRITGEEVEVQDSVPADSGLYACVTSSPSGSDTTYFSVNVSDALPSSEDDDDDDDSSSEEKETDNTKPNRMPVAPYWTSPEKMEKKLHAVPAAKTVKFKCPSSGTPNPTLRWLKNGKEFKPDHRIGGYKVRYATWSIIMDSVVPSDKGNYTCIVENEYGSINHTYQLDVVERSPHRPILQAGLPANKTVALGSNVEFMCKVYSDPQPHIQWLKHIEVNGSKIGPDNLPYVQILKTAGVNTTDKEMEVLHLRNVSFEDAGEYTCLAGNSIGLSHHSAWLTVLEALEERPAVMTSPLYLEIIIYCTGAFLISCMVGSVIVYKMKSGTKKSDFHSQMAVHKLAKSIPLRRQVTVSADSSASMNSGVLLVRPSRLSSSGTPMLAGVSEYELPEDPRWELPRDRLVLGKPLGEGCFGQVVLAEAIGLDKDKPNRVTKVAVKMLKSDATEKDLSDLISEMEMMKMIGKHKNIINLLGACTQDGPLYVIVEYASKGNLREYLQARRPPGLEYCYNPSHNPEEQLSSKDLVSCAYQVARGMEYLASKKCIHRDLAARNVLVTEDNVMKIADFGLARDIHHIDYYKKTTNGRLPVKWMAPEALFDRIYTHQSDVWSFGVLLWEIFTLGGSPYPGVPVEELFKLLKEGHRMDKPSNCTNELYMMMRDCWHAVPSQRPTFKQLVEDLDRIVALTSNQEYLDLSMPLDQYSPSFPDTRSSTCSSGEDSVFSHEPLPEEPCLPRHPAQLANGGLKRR
Experiment: FGFR1 pERK cell assay
Format: cell-based
Conditions: HEK-293 dox-inducible FGFR1, 1 hour compound, 100 ng/ml FGF-acidic; maximum concentration 5 μM
Answers are plain numbers, in µM.

COc1cc(-c2cnn(C3CCN(C(=O)C4CN(C(=O)/C=C/CCl)C4)CC3)c2)cn2ncc(C#N)c12 : 0.196
C=CC(=O)N1C2CC1CN(C(=O)N1CCC(n3cc(-c4cc(OC)c5c(C#N)cnn5c4)cn3)CC1)C2 : 0.525
C=CC(=O)N1CC(C)(C(=O)N2CCC(n3ncc(-c4cc(OC)c5c(C#N)cnn5c4)c3C)CC2)C1 : 2.37
COc1cc(-c2cnn(C3CCN(C(=O)C4(OC)CN(C(=O)/C=C/CN(C)C)C4)CC3)c2C)cn2ncc(Cl)c12 : 0.888
COc1cc(-c2cnn(C3CCN(C(=O)C4(OC)CN(C(=O)/C=C/CN(C)C)C4)CC3)c2C)cn2ncc(C#N)c12 : 1.83

Batch request: IC50 for each of the following compounds.
1. C=CS(=O)(=O)Nc1cccc(C(=O)N2CCC(n3cc(-c4cc(OC)c5c(C#N)cnn5c4)cn3)CC2)c1
2. C=CC(=O)N1CC(CN2CCC(n3ncc(-c4cc(OC)c5c(C#N)cnn5c4)c3C)CC2)C1(C)C (centres unmarked)

A:
1. 0.134
2. 1.96

Q: Look up IC50 for this compound: C=CC(=O)N1CC(OC)(C(=O)N2CCC(n3ncc(-c4cc(OC)c5c(Cl)cnn5c4)c3C)CC2)C1
A: 1.2

---

Target: HEK-293 cells transfected with dox-inducible human wild type FGFR1 (Homo sapiens (Human))
Experiment: FGFR1 pFGFR cell assay (ELISA)
Type: cell-based
Conditions: HEK-293 dox-inducible FGFR1, 1 hour compound
property-label: IC50

Q: Request body: readout IC50, system HEK-293 cells transfected with dox-inducible human wild type FGFR1 (Homo sapiens (Human)), query C=CC(=O)Nc1ccc(C(=O)N2CCC(n3cc(-c4cc(OC)c5c(C#N)cnn5c4)cn3)CC2)cc1 . Return the value.
A: 0.123 µM
